# dCas9 with SSAP activity (normalized) listing for each entry below
# System: gene editing with dCas9
# EXPERIMENTAL PROTOCOL: Screen of 322 new SSAP proteins, gene editing activity with dCas9 (Table 5)
# Type: cell-based
# CONDITIONS USED: normalized

# MOLECULE, dCas9 with SSAP activity (normalized)
measured = [
    ("SSAP_248: SEQ ID NO: 417; Peptoniphilus senegalensis (protein, listed as Peptoniphilus senegalensis) TNQIARKPVNEIKNVLSVPSVRNLFDNALADNAGAFVSSLIDLYGGDSYLQNCEPKDVVMEALKAATLKLPINKNLGFGYVVPFKNKNGKLVPTFIIGYKGLIQLAMRTGQYKAINSGIIYEGMEIKEDVLRGTLEIKGSKQSEKIKGYFAYFQLINGFEKALYMDVEEAADWGRKYSKSFAKGPWTTEFDAQAQKTCLRRLLSKYGVLSTEMQRLEKTEEDVDIAVGTIENNAVEELNIPSSQADYIVDEETGEILDDEEIVAPF", "−0.814"),
    ("SSAP_233: SEQ ID NO: 402; Actinoplanes italicus (protein, listed as Actinoplanes italicus) PETIANAVAQRDQSPTALVADYRNDFAAVLPSHLPPATFVRLAQGVLRRDQNLMRTAMNNPGSLMTAMLDCARLGHEPGTPAYYFVPIKGAIEGWEGYRGVIERIYRAGAVQSVRAEVVRENDFYEYEEGMPHPIHRYERFASPEQRGPLLGVWAYAVMLDGGMSRPVEMGREEVLAHRDMNPSNNRSDSPWKKWERSMWLKCAVHELEKWVPSSTEYRREIARMSAPQPAAAAAPVTYVPPQVGQRDAIEGEVAEDWPEPAEVPGGAQ", "−0.063"),
    ("SSAP_287: SEQ ID NO: 456; Leifsonia xyli subsp. xyli str. CTCB07 (protein, listed as Leifsonia xyli) AVKKNPTIEDYLIKYEPEFQRALGASMDAAKFAQDALTAIKQNPKIGHSDPRSLFGALFLAAQLKLPVGGPLAQFHLTTRTVKGNLTVVPIVGYGGYVQLIMNTGLYSRVSAFLIHAGDYFVTGANSERGEFYDFRRADSDRGEVKGVIAYAKVKGHNESSWVYIDAETMRAKHRPKYWESTPWADDAGEMFKKTGIRVLQKYLPKSVESLNVALAASADQAIVRKVDGVPDLDIQHDRDTETVAVPEQPVSVPQPGDET", "−1.493"),
    ("SSAP_300: SEQ ID NO: 469; Lactobacillus sp. (protein, listed as Lactobacillus sp.) NSLSGALNSRNQAGSPTSMIKNLMRSDSIKNRFDEVMGAKAPQFMASITNLVNSNQDLQHVDAMSVVASAMVAATLDLPIDPNLGYMYIVPYRGQAQPQMGYKGYIQLALRTGQYKHINALPVYDDEVKSWNPLTEELEYESSGTSHDNQTPAGYVGYFQLINGFEKTTYWTYDQINSHRQKFSKMSSKTDPTGVWKSNFDAMALKTVLRNLISKWGIMSIEMQQAFVKDERPQEFDHETGEIQDVQEVEAEEENVAPETQGSTDKKEE", "−1.175"),
]
